biological target: Serine/threonine-protein kinase 38 (Homo sapiens)
measurementType: ΔTm (°C)
Answers are plain numbers, in °C.

// for each compound below, give its ΔTm
1. CC(C)(C)c1nc2c3ccc(F)cc3c3c(=O)[nH]ccc3c2[nH]1
2. Brc1c(Br)c(Br)c2[nH]nnc2c1Br
3. CCN(CC)CCNC(=O)c1c(C)[nH]c(/C=C2\C(=O)Nc3ccc(Cl)cc32)c1C
4. COc1cc(OC)c(/C=C2\C(=O)Nc3ccccc32)c(OC)c1
5. O=C1C(Cl)=C(N2C(=O)CCC2=O)C(=O)c2ccccc21
6. CC(C)n1cnc2c(NCc3ccccc3O)nc(NCCCO)nc21
7. O=c1c(-c2ccc(F)cc2)c(-c2ccncc2)[nH]n1-c1ccc(Cl)cc1

Solution:
[3.7, 1.3, 2.7, 0.2, -1.4, 0.3, 0.5]

For every listed record, write down its ΔTm.
1. O=c1c(-c2ccc(O)cc2)coc2cc(O)cc(O)c12
2. C[S+]([O-])c1ccc(CSc2nc(-c3ccc(F)cc3)c(-c3ccncc3)[nH]2)cc1 (configuration not stated)
3. CCN1/C(=C/C(C)=O)Sc2ccc(OC)cc21

Solution:
[0.6, 0.4, 0.5]

// input: 3 compounds below; output: ΔTm for each
1. Nc1n[nH]c2nnc(-c3c(-c4ccccc4)nn4ccccc34)cc12
2. COc1ccc2c(c1)/C(=C/c1cnc[nH]1)C(=O)N2
3. Cc1ccc(NC2=CC(=O)c3sc(C)nc3C2=O)cc1

Solution:
1. 1.9
2. 3.4
3. -1

Batch request: ΔTm per item, same order as input.
1. CN(C)S(=O)(=O)c1ccc2c(c1)/C(=C/c1cc3c([nH]1)CCCC3)C(=O)N2
2. CC(C)(C)n1nc(-c2cccc3ccccc23)c2c(N)ncnc21
3. NC(=O)c1ccc(-c2nc(-c3ccc4c(c3)OCCO4)c(-c3ccccn3)[nH]2)cc1
4. CC(C)n1cnc2/c(=N/c3cccc(Cl)c3)nc(NCCO)[nH]c21
5. CCOC(=O)c1c(C)[nH]c(/C=C2\C(=O)Nc3ccccc32)c1C

Solution:
2.2
0.4
0.5
2.7
-0.1

Please go through the list and note ΔTm for each compound.
1. CC(C)N(CCO)c1nc(Nc2cccc(Cl)c2)c2ncn(C(C)C)c2n1
2. COc1ccc(CNc2nc(N(CCO)CCO)nc3c2ncn3C(C)C)cc1
3. O=c1cc(N2CCOCC2)oc2c1ccc1ccccc12
4. O=C(O)c1cc(NCc2cc(O)ccc2O)ccc1O

Solution:
1. 3.3
2. 0.4
3. 0.1
4. -0.4

* * *

molecular target: Casein kinase I isoform gamma-2 (Homo sapiens)
Please map values of ΔTm to classes as shown: low: < 0.5 °C; intermediate: ≥ 0.5 °C and < 1 °C; high: ≥ 1 °C

>>> classassignment("C[S+]([O-])c1ccc(-c2nc(-c3ccc(F)cc3)c(-c3ccncc3)[nH]2)cc1 (stereo not drawn)")
"intermediate"
>>> classassignment("Cc1cc(Nc2nc(-c3ccccc3)nc3ccccc23)n[nH]1")
"high"
>>> classassignment("Nc1nc(Nc2ccc(S(N)(=O)=O)cc2)nn1C(=S)Nc1c(F)cccc1F")
"high"
>>> classassignment("COc1ccc(CNc2nc(N(CCO)CCO)nc3c2ncn3C(C)C)cc1")
"high"
>>> classassignment("Cc1ccc(NC(=O)c2ccc(CN3CCN(C)CC3)cc2)cc1Nc1nccc(-c2cccnc2)n1")
"intermediate"
>>> classassignment("CN(C)C[C@@H]1CCn2cc(c3ccccc32)C2=C(C(=O)NC2=O)c2cn(c3ccccc23)CCO1")
"intermediate"
>>> classassignment("NC1=NC(=O)/C(=C2\\CCNC(=O)c3[nH]c(Br)cc32)N1")
"high"
>>> classassignment("Oc1cccc(-c2nc(N3CCOCC3)c3oc4ncccc4c3n2)c1")
"low"

Exercise: Record Nc1n[nH]c2nc3ccccc3nc12 — which class?
Solution: low

Exercise: Field: class (ΔTm) — entry: O=C1Cc2c([nH]c3ccc([N+](=O)[O-])cc23)-c2ccccc2N1
Solution: intermediate

Exercise: Please report the category associated with O=c1c(O)c(-c2ccc(O)c(O)c2)oc2cc(O)cc(O)c12 , nothing else.
Solution: high

Exercise: Note: place this molecule into its band. Item: O=C1c2ccccc2-c2n[nH]c3cccc1c23
Solution: high

Exercise: Into which bin does this molecule go? CN(C)CC1CCn2c(c(C3=C(c4c[nH]c5ccccc45)C(=O)NC3=O)c3ccccc32)C1 (stereo not drawn)
Solution: low

Exercise: Hi, small favor: classify C#Cc1cccc(Nc2ncnc3cc(OCCOC)c(OCCOC)cc23)c1 by its ΔTm when you get a moment.
Solution: low

Exercise: For this molecule, which bin applies? Cl.Cn1cc(C2=C(c3ccc4cc5n(c4c3)CCC(CN)C5)C(=O)NC2=O)c2ccccc21 (stereo not drawn)
Solution: low

Exercise: Band assignment needed for Cc1nc(N)sc1-c1ccnc(Nc2cccc([N+](=O)[O-])c2)n1 please.
Solution: high

Exercise: For the record O=c1sn(Cc2ccccc2)c(=S)n1Cc1ccccc1 , report the class its ΔTm corresponds to.
Solution: low

Exercise: Just checking, what class would you give O=c1c(-c2ccc(F)cc2)c(-c2ccncc2)[nH]n1-c1ccc(Cl)cc1 here?
Solution: intermediate

Exercise: Looking at O=C1Nc2ccccc2/C1=C\c1ccc[nH]1 , which class would you pick?
Solution: high

Exercise: Determine which band this molecule sits in: Cc1ccc(NC(=O)c2cccc(N(C)C)c2)cc1NC(=O)c1ccc(O)cc1
Solution: low

Exercise: Class label required: Nc1cccc(-c2cc3c(Oc4cccc(O)c4)ncnc3[nH]2)c1
Solution: high

Exercise: Band of O=C(Nc1cccc(Nc2nccc(Nc3cccc(C(F)(F)F)c3)n2)c1)C1CC1 ?
Solution: high
